Form: system (Serratia 4), quantity (MIC), values below.
Response body: numeric value in µg/mL, unit text excluded.

Previously resolved entries follow.
C[C@@H]1C[C@H](N)[C@@H](O)[C@@H](O[C@@H]2[C@@H](O)[C@H](O[C@H]3O[C@H](CN)CC[C@H]3N)[C@@H](N)C[C@H]2NC(=O)[C@@H](O)CCN)O1 | 6.25
NC[C@@H]1CC[C@@H](N)[C@@H](O[C@H]2[C@H](O)[C@@H](O[C@H]3O[C@H](CO)[C@@H](O)[C@H](N)[C@H]3O)[C@H](N)C[C@@H]2N)O1 [DKB, 3',4'-dideoxykanamycin B, reference compound] | 100
C[C@H]1O[C@H](O[C@@H]2[C@@H](O)[C@H](O[C@H]3O[C@H](CN)CC[C@H]3N)[C@@H](N)C[C@H]2N)[C@H](O)[C@@H](N)[C@@H]1O | 100
C[C@H]1O[C@H](O[C@@H]2[C@@H](O)[C@H](O[C@H]3O[C@H](CN)CC[C@H]3N)[C@@H](N)C[C@H]2NC(=O)[C@@H](O)CCN)[C@H](O)[C@@H](N)[C@@H]1O | 6.25

Query molecule follows.
Query string: For the molecule C[C@@H]1C[C@H](N)[C@@H](O)[C@@H](O[C@@H]2[C@@H](O)[C@H](O[C@H]3O[C@H](CN)CC[C@H]3N)[C@@H](N)C[C@H]2N)O1 , report MIC.
Result string: 100
